target_system: EP2 (Homo sapiens)
Sequence (P43116 whole entry): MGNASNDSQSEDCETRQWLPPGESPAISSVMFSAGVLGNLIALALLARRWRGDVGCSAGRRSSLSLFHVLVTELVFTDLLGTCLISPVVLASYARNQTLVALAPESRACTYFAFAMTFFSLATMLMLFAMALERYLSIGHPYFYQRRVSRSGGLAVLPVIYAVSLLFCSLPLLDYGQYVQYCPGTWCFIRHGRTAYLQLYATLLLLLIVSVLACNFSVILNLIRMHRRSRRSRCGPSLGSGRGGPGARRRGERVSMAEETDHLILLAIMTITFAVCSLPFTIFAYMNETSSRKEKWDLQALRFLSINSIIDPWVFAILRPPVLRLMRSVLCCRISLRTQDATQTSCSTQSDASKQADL
Threshold 90 nM. Ki below it: true. Ki at it or above: false.

molecule | assigned_category
CCC1(C(O)C/C=C/C2=CCC[C@@H]2CCCc2ccc(C(=O)O)s2)CCC1 (some centres unmarked) [Compound 16] | true
CCC1(C(O)C/C=C/[C@@H]2[C@@H](CCCc3ccc(C(=O)O)s3)CC[C@@H]2Cl)CCC1 (some centres unmarked) [Compound 50] | false
CCC1(C(O)C/C=C/[C@H]2C(=O)CC[C@@H]2CCCc2ccc(C(=O)O)s2)CCC1 (some centres unmarked) [Compound 12] | true
CCC1(C(O)C/C=C/[C@@H]2[C@@H](CCCc3ccc(C(=O)O)s3)CC[C@@H]2C#N)CCC1 (some centres unmarked) [Compound 41] | false
CCC1(C(O)CCC[C@@H]2[C@@H](CCCc3ccc(C(=O)O)s3)CC[C@@H]2Cl)CCC1 (some centres unmarked) [Compound 51] | false

* * *

Listing: log10(EC50) of selected molecules
target_system: EP2 (Homo sapiens)
measurement_notes: EP2 cAMP functional assay
measure: log10(EC50) (log10 of the value in nM)

molecule | measure | meas_value
CCC1(C(O)C/C=C/[C@H]2C(=O)CC[C@@H]2CCCc2ccc(C(=O)O)s2)CCC1 (stereo partly shown) [Compound 12] | log10(EC50) | 0.73
CCC1(C(O)C/C=C/[C@@H]2[C@@H](CCCc3ccc(C(=O)O)s3)CC[C@@H]2F)CCC1 (stereo partly shown) [Compound 35] | log10(EC50) | 1.36
CCC1(C(O)CCC[C@@H]2[C@@H](CCCc3ccc(C(=O)O)s3)CC[C@H]2F)CCC1 (stereo partly shown) [Compound 27] | log10(EC50) | 0.93
CCC1(C(O)C/C=C/[C@@H]2[C@@H](CCCc3ccc(C(=O)O)s3)CC[C@@H]2Cl)CCC1 (stereo partly shown) [Compound 50] | log10(EC50) | 2.07
CCC1(C(O)CCC[C@@H]2[C@@H](CCCc3ccc(C(=O)O)s3)CC[C@H]2Cl)CCC1 (stereo partly shown) [Compound 67] | log10(EC50) | 1.04
CCC1(C(O)CCC[C@@H]2[C@@H](CCCc3ccc(C(=O)O)s3)CC[C@@H]2F)CCC1 (stereo partly shown) [Compound 37] | log10(EC50) | 1.28
CCC1(C(O)C/C=C/[C@@H]2[C@@H](CCCc3ccc(C(=O)O)s3)CC[C@@H]2C#N)CCC1 (stereo partly shown) [Compound 41] | log10(EC50) | 2.11
